# system: P-selectin (Homo sapiens)
# protocol: Inhibition of sLex binding to P-selectin at 500 uM relative to control by glyco-ELISA assay
Listing: inhibition of selected compounds
Just so you know, I need the unit written after the number.

Tell me the measured inhibition of CCCCCCCCCCOc1cc(OCCCCCCCCCC)cc(OCCCCCC(=O)N(c2ccc(C(=O)OC)cc2)c2ccc(C(=O)OC)c(C(=O)OC)c2)c1 , please.
90%

I am curious: what inhibition value has been reported for CCCCCCCCCCOc1cc(OCCCCCCCCCC)cc(OCCCCCC(=O)N(Cc2ccc(C(=O)O)cc2)c2ccc(C(=O)O)cc2)c1 ?
49%

Given the entry CCCCCCCCCCOc1cc(OCCCCCCCCCC)cc(OCCCCCC(=O)N(Cc2ccc(C(=O)OC)cc2)c2ccc(C(=O)OC)cc2)c1 , report its measured inhibition.
27%

For the compound O=C(O)c1ccc(N(C(=O)CCCCCBr)c2ccc(C(=O)O)cc2)cc1 , what inhibition is on record?
12%

These data points were gathered from ChEMBL document CHEMBL1137388.
